Recorded pKi values for a group of molecules are listed next.
Target: hNPY1R (Homo sapiens, UniProt P25929)
Construct: SK-N-MC cells endogenously expressing the NPY1R receptor; endogenous in cells; host or cells: SK-N-MC cells (crude membrane fractions)
Sequence (P25929 whole entry): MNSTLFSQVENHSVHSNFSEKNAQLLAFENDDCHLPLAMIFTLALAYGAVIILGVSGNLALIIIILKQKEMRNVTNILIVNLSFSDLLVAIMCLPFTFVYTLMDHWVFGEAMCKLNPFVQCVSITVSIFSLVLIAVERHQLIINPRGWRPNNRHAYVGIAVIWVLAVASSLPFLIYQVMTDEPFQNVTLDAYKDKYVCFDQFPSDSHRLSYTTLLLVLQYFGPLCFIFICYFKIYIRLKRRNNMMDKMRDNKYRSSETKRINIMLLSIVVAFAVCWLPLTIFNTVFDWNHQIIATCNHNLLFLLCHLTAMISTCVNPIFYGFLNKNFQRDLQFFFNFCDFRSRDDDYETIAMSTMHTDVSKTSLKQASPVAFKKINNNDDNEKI
Experiment: NPY1R binding assay: SK-N-MC membranes, [125I]-Peptide YY (human) competition
Details: data obtained after 60 minutes at 37° C.; SK-N-MC membranes; [125I]-Peptide YY 0.05 nM; read-out: hNPY1R binding Ki* †
pKi: −log10 of the molar value.

Measured pKi of CCC(=O)NCCNC(=O)/N=C(/N)NCCC[C@@H](NC(=O)C(c1ccccc1)c1cccc(OCCCCNC(=O)CNC(=O)[C@@H](CC(N)=O)NC(=O)CN2CCN(CC(=O)O)CCN(CC(=O)O)CCN(CC(=O)O)CC2)c1)C(=O)NCc1ccc(O)cc1 (single isomer, unassigned) [Compound 112A] : 7.00 to 8.00

Measured pKi of CCC(=O)NCCNC(=O)/N=C(/N)NCCC[C@@H](NC(=O)C(c1ccccc1)c1ccc(NCCCNc2c(NCCNC(=O)CN3CCN(CC(=O)O)CCN(CC(=O)O)CCN(CC(=O)O)CC3)c(=O)c2=O)cc1)C(=O)NCc1ccc(O)cc1 (single isomer, unassigned) [Compound 124B] : > 8.00

Measured pKi of CCC(=O)NCCNC(=O)/N=C(/N)NCCC[C@@H](NC(=O)C(c1ccccc1)c1cccc(OCCCCNC(=O)[C@H](N)CCCCNC(=O)CN2CCN(CC(=O)O)CCN(CC(=O)O)CCN(CC(=O)O)CC2)c1)C(=O)NCc1ccc(O)cc1 (single isomer, unassigned) [Compound 109B] : > 8.00

Measured pKi of CCC(=O)NCCNC(=O)/N=C(/N)NCCC[C@@H](NC(=O)C(c1ccccc1)c1cccc(OCCCCNC(=O)[C@H](CS(=O)(=O)O)NC(=O)CN2CCN(CC(=O)O)CCN(CC(=O)O)CCN(CC(=O)O)CC2)c1)C(=O)NCc1ccc(O)cc1 (single isomer, unassigned) [Compound 107A] : 7.00 to 8.00
